Values compiled from PubChem BioAssay (NCI).

Test: NCI Yeast Anticancer Drug Screen. Data for the mec2-1 strain (AID 157)
Details: S. cerevisiae mec2-1 strain, at 50.0 µM (retest, dose inferred, filed as 5.0), hits give high values
Method: Growth inhibition of yeast strains with defined genetic alterations is measured as a screen for potential anti-cancer activity. Selected strains with alterations in DNA damage repair or cell cycle control were exposed to compounds and growth inhibition was measured relative to vehicle treated controls. The strain used in this assay is mec2-1
Compounds without any hit were thinned out: in the full panel of roughly 79,000, 15% have a hit.
// label = y if growth inhibition is not less than 20%, otherwise n

In [3]: df
Out[3]:
                                    compound  category
 0  CCCCN(CCO)CC(O)Cn1cnc2c(N)ncnc21 (stereo not given) (tested in a mixture with another compound)         n
 1  CN(C)c1ccc(N=Nc2ccc3c4c(cccc24)-c2ccccc2-3)cc1         y
 2                    N#CC#Cc1cccc(C#CC#N)c1         y
 3              Nc1cc(=O)[nH]c(=S)[nH]1.[Pd]         n
 4               COC(=O)c1ccccc1NC(=S)NN(C)C         n
 5  C/C(=N/NC(=O)Nc1ccc(N=Nc2ccccc2)cc1)c1ccccn1         n
 6  NC1=C(O)C(=O)C(c2c3ccccc3cc3ccccc23)O1 (stereo not given)         y
 7  COc1ccc2c(c1)CN([C@@H](C)[C@H]1CC[C@H]3[C@@H]4CC[C@H]5C[C@@H](O)CC[C@]5(C)[C@H]4CC[C@]13C)CO2         y
 8   O=C1CNC(=O)c2cc(N=Cc3cc(Br)ccc3O)ccc2N1         y
 9  CC(=O)N1CC(C)CC2OC3(CCC4C5CCC6CC(O)CCC6(C)C5C(=O)C4C3C)C(C)C21 (stereo not given)         y
10  Cc1ccccc1C(=O)C(C)c1ccccc1 (stereo not given)         n
11  O=C(Nn1cc(F)c(=O)[nH]c1=O)C12CC3CC(CC(C3)C1)C2         y
12  COC(=O)C1=C(C)NC(C)=C(C(=O)OC)C1c1ccc(NCc2ccccc2)c([N+](=O)[O-])c1         y
13                          Oc1cc2ccccc2cc1O         y
14                        Oc1cc(F)cc2cccnc12         y
